Test: Instantaneous solubility of the compounds of formula (I) in aqueous media
Assay type: physicochemical
Details: instantaneous solubility, room temperature, phosphate buffer pH 7.5
Method: Furthermore, the hydrophobic character of the compounds of formula (I) is very strongly pronounced. […] These compounds are soluble in alcohols and glycols and more particularly in polyethylene glycols (PEG). The solubilities of the compounds of formula (I) are measured in different aqueous media. The instantaneous solubility is evaluated at room temperature by quantitative analysis. The results, expressed in μg per ml, are collated in Table 1 below: […]
Where a name gives a salt, the structure may show the parent alone.
Metric: Solubility, dissolution medium Phosphate buffer pH 7.5

Would you mind telling me what Solubility, dissolution medium Phosphate buffer pH 7.5 value was observed for Cc1c(C(=O)NN2CCCCC2)nn(-c2ccc(Cl)cc2Cl)c1-c1ccc(Cl)cc1 [Phosphate] ?
0.7 μg per ml

Would you kindly repeat that for Cc1c(C(=O)NN2CCCCC2)nn(-c2ccc(Cl)cc2Cl)c1-c1ccc(Cl)cc1 [Paratoluenesulfonate] ?
0.2 μg per ml

Would you kindly repeat that for Cc1c(C(=O)NN2CCCCC2)nn(-c2ccc(Cl)cc2Cl)c1-c1ccc(Cl)cc1 [Hydrogensulfate] ?
0.9 μg per ml

Would you kindly repeat that for Cc1c(C(=O)NN2CCCCC2)nn(-c2ccc(Cl)cc2Cl)c1-c1ccc(Cl)cc1 [Hydrochloride (solvated)] ?
0.5 μg per ml

----------
experiment: Intestinal transepithelial passage across Caco-2 monolayer; assay type: in vitro ADME; settings: human, Caco-2; introduced in Hank's medium pH 6.5, in solution in DMSO; apical to basal; read-out: Coefficient of permeability P
Metric: Papp A→B (×10⁻⁶ cm/s)
Enter your answer as a number in ×10⁻⁶ cm/s; do not include the unit.

Would you mind telling me what Papp A→B value was observed for Cc1c(C(=O)NN2CCCCC2)nn(-c2ccc(Cl)cc2Cl)c1-c1ccc(Cl)cc1 [compound A] ?
9.6

----------
Experiment: Instantaneous solubility of the compounds of formula (I) in aqueous media
Type: physicochemical
Settings: instantaneous solubility, room temperature, water
Experimental: Furthermore, the hydrophobic character of the compounds of formula (I) is very strongly pronounced. […] These compounds are soluble in alcohols and glycols and more particularly in polyethylene glycols (PEG). The solubilities of the compounds of formula (I) are measured in different aqueous media. The instantaneous solubility is evaluated at room temperature by quantitative analysis. The results, expressed in μg per ml, are collated in Table 1 below: […]
Counter-ions that a name gives are not always drawn.
I'd be grateful if you could share measured Solubility, dissolution medium Water for these entries.
Enter your answer as a number in μg per ml; do not include the unit.

Would you mind telling me what Solubility, dissolution medium Water value was observed for Cc1c(C(=O)NN2CCCCC2)nn(-c2ccc(Cl)cc2Cl)c1-c1ccc(Cl)cc1 [Phosphate] ?
1.3

Would you kindly repeat that for Cc1c(C(=O)NN2CCCCC2)nn(-c2ccc(Cl)cc2Cl)c1-c1ccc(Cl)cc1 [Methanesulfonate (solvated)] ?
39

Would you kindly repeat that for Cc1c(C(=O)NN2CCCCC2)nn(-c2ccc(Cl)cc2Cl)c1-c1ccc(Cl)cc1 [Hydrogensulfate] ?
13

Would you kindly repeat that for Cc1c(C(=O)NN2CCCCC2)nn(-c2ccc(Cl)cc2Cl)c1-c1ccc(Cl)cc1 [Hydrochloride (solvated)] ?
37

Would you kindly repeat that for Cc1c(C(=O)NN2CCCCC2)nn(-c2ccc(Cl)cc2Cl)c1-c1ccc(Cl)cc1 [Solvated compound A] ?
0.7

Would you kindly repeat that for Cc1c(C(=O)NN2CCCCC2)nn(-c2ccc(Cl)cc2Cl)c1-c1ccc(Cl)cc1 [Paratoluenesulfonate] ?
3.9
